pIC50 tested on Endothelin-1 receptor (Rattus norvegicus): recorded values
Recall that pIC50 is obtained by taking minus log10 of the concentration measured in molar.

Cc1noc(NS(=O)(=O)c2cccc3c(CN(C)C)cccc23)c1C    5.55
Cc1noc(NS(=O)(=O)c2ccc(N(C)C)cc2)c1C    4.08

**Q:** Field: pIC50 (Endothelin-1 receptor (Rattus norvegicus)). Entry: Cc1cc(NS(=O)(=O)c2ccc(N)cc2)on1
**A:** 4.55

###

- methodDescription: Selectivity for the ET-A receptor over ETB receptor was observed in rat cerebellar membranes
observable: Ki

**Q:** Reported Ki for Cc1noc(NS(=O)(=O)c2cccc3c(N(C)C)cccc23)c1C : what is it?
**A:** > 200 µM
